Origin of measurements: paper PMC12118597

target-under-test: SARS-CoV-2 NSP3 macrodomain (Mac1) (Severe acute respiratory syndrome coronavirus 2, UniProt P0DTD1)
Assay type: binding
run-conditions: ligand conformations modeled in the crystal structure
Listing of entries alongside the reported Total number of conformations.
Lab note: write the figure by itself, no unit.

Below, each entry is followed by its recorded Total number of conformations result.
compound | Total number of conformations
Cc1nn(C)cc1C1CC[C@H](CO)N1c1ncnc2[nH]ccc12 (stereo partly shown) | 1
CCC(Nc1ncnc2[nH]ccc12)C(C)O (stereo not shown) | 2
OCC(Cc1ccc(I)cc1)Nc1ncnc2[nH]ccc12 (stereo not shown) | 2
OCC1COCCN1c1ncnc2[nH]ccc12 (stereo not shown) | 2
CC1CCN(C(=O)c2ccc3c(c2)nc(CO)n3C)CC1C(=O)O (stereo not shown) | 1
Cc1c(C)n(Cc2ccccc2)c2ncnc(N)c12 | 1
OCC(Cc1nccs1)Nc1ncnc2[nH]ccc12 (stereo not shown) | 1
Cc1ccc(CC(CO)Nc2ncnc3[nH]ccc23)cc1C (stereo not shown) | 2
OCC(CN1CCCCC1)Nc1ncnc2[nH]ccc12 (stereo not shown) | 1
CCCC(CO)Nc1ncnc2[nH]ccc12 (stereo not shown) | 1

Inquiry: Can you share its Total number of conformations? I mean this compound: OCC(Nc1ncnc2[nH]ccc12)C1CCC1 (stereo not shown)
Reply text: 1

Inquiry: Quick check: Total number of conformations of CC1(C)CCC(CO)N(c2ncnc3[nH]ccc23)C1 (stereo not shown) ?
Reply text: 3

Inquiry: Item O=C(O)C(F)(F)F.OCC1(Nc2ncnc3[nH]ccc23)CCCC1 has what recorded Total number of conformations?
Reply text: 1

Inquiry: I have this compound here, OCC(CC1OCCO1)Nc1ncnc2[nH]ccc12 (stereo not shown) , and I need its recorded Total number of conformations.
Reply text: 1

Inquiry: Could you share which Total number of conformations value was measured for CCC(O)[C@H]1CCCN1c1ncnc2[nH]ccc12 (stereo partly shown) ?
Reply text: 1

Inquiry: If you can, please state the reported Total number of conformations value of CC(C)(C)CC(CO)Nc1ncnc2[nH]ccc12 (stereo not shown) .
Reply text: 1

Inquiry: Need Total number of conformations, item OCC(O)C1CCCN1c1ncnc2[nH]ccc12 (stereo not shown)
Reply text: 1

---

target-under-test: SARS-CoV-2 NSP3 macrodomain (Mac1) (Severe acute respiratory syndrome coronavirus 2, UniProt P0DTD1)
Format: binding
run-conditions: refined crystallographic occupancy
experimental-readout: Refined ligand occupancy (%)
Output spec: scalar in %, unitless text.

Sample answers from the record:
molecule | observed-measurement
CC(C)(O)[C@H]1CCCN1c1ncnc2[nH]ccc12 [AVI-607] | 93
CCC(C)(CO)Nc1ncnc2[nH]ccc12 (stereo not shown) [AVI-3697] | 50
CCC(CC)(CO)Nc1ncnc2[nH]ccc12 [AVI-3695] | 30
OC1CCCN(c2ncnc3[nH]ccc23)C1 (stereo not shown) [AVI-3646] | 44

Inquiry: Sample Cc1nn(C)cc1C1CC[C@H](CO)N1c1ncnc2[nH]ccc12 (stereo partly shown) [AVI-3733] — what was its Refined ligand occupancy (%)?
Reply text: 40

Inquiry: Bench note: what Refined ligand occupancy (%) did OCC(Nc1ncnc2[nH]ccc12)C1CCOC1 (stereo not shown) [AVI-3679] show?
Reply text: 32

Inquiry: Need Refined ligand occupancy (%), item C[C@@H](O)[C@H](CO)Nc1ncnc2[nH]ccc12.O=C(O)C(F)(F)F [AVI-3730]
Reply text: 28
